Give measured cytotoxicity for each item. Keep answers brief.
# Tested on: Jurkat
# Run description: cytotoxicity relative to DMSO, 18 h (ratio); higher = less cell death (drugs called cytotoxic fall below 1)
# Cond: 10000 nM

Lookup: Name the recorded cytotoxicity of the item COc1cc(Nc2ncc(F)c(Nc3ccc4c(n3)N(COP(=O)(O)O)C(=O)C(C)(C)O4)n2)cc(OC)c1OC [Fostamatinib] in your answer.
Found: 0.783

Lookup: Input CCS(=O)(=O)N1CCN(c2ccc(Nc3ncc(C(N)=O)c(NC4CC4)n3)cc2)CC1 [Cerdulatinib] , output reported cytotoxicity.
Found: 0.921

Lookup: Note down cytotoxicity recorded for CCCCc1nc2cc(C=CC(=O)NO)ccc2n1CCN(CC)CC [Pracinostat]
Found: 0.852

Lookup: Supply reported cytotoxicity belonging to this molecule: Nc1ccn(C2OC(CO)C(O)C2(F)F)c(=O)n1 (centres undefined) [Gemcitabine]
Found: 0.602

Lookup: Provide measured cytotoxicity value, entry: CC(C)CC(NC(=O)CNC(=O)c1cc(Cl)ccc1Cl)B(O)O (centres undefined) [Ixazomib]
Found: 0.631

Lookup: Output measured cytotoxicity for this item: c1ccc2c(CCNc3ccc(Nc4ccncc4)cc3)c[nH]c2c1 [Serdemetan]
Found: 0.829

Lookup: Supply measured cytotoxicity of Cc1c(Cn2c(C)nc3c(C(=O)O)cc(N4CCOCC4)cc32)cccc1C(F)(F)F in your reply.
Found: 1.01

Lookup: Item COC1=C2CC(C)CC(OC)C(O)C(C)C=C(C)C(OC(N)=O)C(OC)C=CC=C(C)C(=O)NC(=CC1=O)C2=O (centres undefined) [Geldanamycin] : provide cytotoxicity
Found: 0.798

Lookup: Recall and state the measured cytotoxicity for CN1CCc2c(c3ccccc3n2Cc2ccc(C(=O)NO)cc2)C1 [Tubastatin A] .
Found: 0.893
